# melting point listing for each entry below

| compound | melting point |
| --- | --- |
| COc1ccc2c(C(=S)N(C)CC(=O)N(C)C)cccc2c1C(F)(F)F | 172 to 175 °C |
| O=C(c1ccc(I)cc1)c1ccc2nc(Cl)nc(-c3cccc(Cl)c3)c2c1 | 153 °C |
| Cc1ccc2c(c1)c1cc(-c3cccc(Br)c3)c(=O)n(C)c1n2C | 215 to 216 °C |
| CNC=Nc1cnc2ccccc2c1 | 142 to 143 °C |
| CNCC1CCN(c2c(F)cc3c(=O)c(C(=O)O)cn(C4CC4)c3c2OC)C1 (stereo unspecified) | 226 to 230 °C |
| CS(=O)(=O)Nc1cc(N)c(F)cc1C#N | 235 °C |
| Nc1cc(C(=O)O)c(F)c(F)c1F | 164 to 166 °C |
| O=P1(c2cccc(C(F)(F)F)c2)OCc2ccccc21 (stereo unspecified) | 102 to 106 °C |
| CCCCC(C(=O)N[C@@H](CC(=O)O)c1ccc2c(c1)OCO2)N1C(=O)N(Cc2ccccc2)C(=O)C1(C)C (stereo partly specified) | 53 to 55 °C |
| Cc1c(/C=N/OCCCOc2ccc(CC(=O)O)cc2)c2ccccc2n1C | 106 to 108 °C |
| CC(=O)Nc1ccc(OCCCCO[N+](=O)[O-])cc1 | 92 to 98 °C |

* * *

| compound | melting point |
| --- | --- |
| CCN1C(=O)CC(=O)N(CC)C1=O | 52 °C |
| CCCC(=O)Nc1cc(C(F)(F)F)ccc1SCC#N | 88.5 to 89.5 °C |
| CC[C@H](O)C(=O)N1CCC(Oc2cc3ncnc(Nc4cccc(Cl)c4F)c3cc2OC)CC1 | 152 to 153 °C |
| Cc1cc(OCC(O)CNC(C)C)c2cc(C(=O)N(C)C)[nH]c2c1 (stereo not given) | 169 to 171 °C |
| N#Cc1c(N)c(C#N)c(-c2ccccc2)c2c1CCC2 | 148 to 149 °C |
| CC(=O)N1c2cc([N+](=O)[O-])ccc2[C@H]2Cc3ccc([N+](=O)[O-])cc3[C@H]21 (relative stereo) | 264 to 266 °C |
| CCC1(C)Oc2cccc(O)c2O1 (stereo not given) | 48 to 50 °C |
| COc1cccc(C(O)CNCCN)c1 (stereo not given) | 50 °C |
| CCOc1ccccc1C(=O)Nc1ccc(C(=O)N2CCC(F)(F)/C(=C\C(=O)N3CCOCC3)c3ccccc32)cc1 | 144 to 147 °C |
| CCOc1ccc(-c2c(O)c3ccc(Cl)cc3[nH]c2=O)cc1 | > 320 °C |

* * *

| molecule | melting point |
| --- | --- |
| O=CCCC[C@@H](C(=O)O)N1C(=O)c2ccccc2C1=O | 219 to 222 °C |
| C=CCn1c(=O)c(C(=O)OCC)c(O)c2cnc(-c3ccccc3)nc21 | 174 to 175 °C |
| CCN(CC)CCNC(=S)NC(=O)c1ccccc1 | 54 to 56 °C |
| CCCn1c(=O)c2[nH]c(/C=C/c3ccc(OC)c(Br)c3)nc2n(CCC)c1=O | 280 to 281 °C |
| O=C1c2ccccc2C(=O)N1CC(=O)N1c2ccccc2N(Cc2ccccc2)C(=O)[C@H]2CCC[C@H]21 (relative stereo) | 247 to 249 °C |
| CS(=O)(=O)c1ccc(CN2CCN(C(=O)N3CCC(c4cn[nH]c4)C3)c3ccccc32)cc1 (stereo not given) | 239 °C |
| CCC(C)n1c(=O)nc(SC)[nH]c1=O (stereo not given) | 134 to 136 °C |
| CC(=O)NCc1ccc(CN2CCN(c3ccc(F)cc3F)CC2)cc1 | 94 to 95 °C |
| O=C(O)c1ccc(Cl)cc1C(F)(F)F | 106 to 108 °C |
| CC(C)c1ccc(-n2nnc(-c3ccc(O)cc3)n2)cc1 | 158 to 160 °C |
| CC(C)(Cc1ccc(F)cc1)NC(=O)Nc1ccccc1CCc1cc(C(C)(C)C)c(O)c(C(C)(C)C)c1 | 151 °C |
| COc1cc(NC(=O)CC(C)=O)c(OC)cc1Cl | 105 to 106 °C |
| COc1ccc(S(=O)(=O)CCCc2ccc(CC(=O)O)cc2)cc1 | 149 to 150 °C |
| O=c1c2c(Cc3ccc(C(F)(F)F)cc3)n[nH]c2c2cccnc2n1-c1cccc(C(F)(F)F)c1 | 145 to 148 °C |
| FC(F)(F)c1cc(CCC2OCCNC2c2ccccc2)cc(C(F)(F)F)c1 (stereo not given) | 114 to 116 °C |
| Cc1cc(C)n(-c2nccc(Nc3cccc(C(F)(F)F)c3)n2)n1 | 98.5 to 99.6 °C |
| Nc1nc(-n2cc(C(=O)O)c(=O)c3cc(F)c(F)c(Cl)c32)c(Cl)cc1F | 280 °C |
| O=C(CC[C@H]1CC[C@H](Nc2ncc3ncnc(Nc4ccc(F)c(Cl)c4)c3n2)CC1)N1CCCC1 | 187 to 192 °C |
| CCCOc1nc(NC(C)=O)nc2ccc(Cl)nc12 | 191 °C |
| CC(C)(C)c1cc(C(=O)c2cccs2)cc(CN2CCCC2)c1O | 95 to 97 °C |
| CC(C)(C)OC(=O)N1COC(=O)[C@@H]1CSCc1ccccc1 | 63 to 65 °C |
| CCCCn1c(=O)c2[nH]cnc2n(CCCC)c1=O | 166 to 169 °C |
| COc1ccc(C(=O)Nc2cccc(C(=O)O)c2)c2c1OCCO2 | 283 to 284 °C |
| Cc1nc2n(C)c(C)cn2c(=O)c1CCN1CCC(n2ccc3ccccc32)CC1 | 166 °C |
| O=C(O)CCC(NC(=O)C=Cc1ccco1)C(=O)O (stereo not given) | 166 to 170 °C |
| O=C(O)C(c1ccccc1)N1C(=O)c2cc(Cl)c(Cl)cc2C1=O (stereo not given) | 228 to 232 °C |
| O=C(Nc1ccccc1Oc1ccc(Cl)cc1Cl)C1CCN(S(=O)(=O)c2cc(Cl)ccc2Cl)CC1 | 194 to 196 °C |
| ClCc1cnoc1-c1cc(Cl)c(Cl)s1 | 60 to 61 °C |
| Oc1ccc(-c2n[nH]c3ccccc23)cc1 | 189 to 190 °C |
| CC(=O)NC[C@H]1CN(c2cc(F)c(N3CCC(Cc4noc(C)n4)CC3)c(F)c2)C(=O)O1 | 134 to 136 °C |
| Cc1nc2ccc3c(c2o1)C(=CC#N)CC3 | 180 to 182 °C |
| N#CC1C(c2ccccc2)N1C(=O)NC(=O)CCl (stereo not given) | 153 to 158 °C |
| Cc1cccc(C2(Cn3cncn3)CC(COc3ccccc3[N+](=O)[O-])ON2C)c1 (stereo not given) | 149 to 152 °C |
| CN(C(CCn1c(=O)cc(C(F)(F)F)[nH]c1=O)C(=O)NO)S(=O)(=O)c1ccc(Oc2cccc(Cl)c2)cc1 (stereo not given) | 168 to 169 °C |
| NC(=O)C(CCCC(NC(=O)OCc1ccccc1)C(=O)O)NC(=O)OCc1ccccc1 (stereo not given) | 145 to 150 °C |
| C=CCn1c(C)nc2c1CC(C(=O)OCC)CC2=O (stereo not given) | 95 to 97 °C |
| CC(C)(C)OC(=O)Nc1ccc(-c2ccc(-c3ccccc3)cc2)cc1NC(=O)CC(=O)c1cccc(C#N)c1 | 214 to 216 °C |
| Cc1cccc(-n2nc(C)cc2-c2ccnc(N(C)C)c2)c1 | 84 to 85 °C |
| CCCCOCCOc1ccc(-c2cnc(N3CC(C)C(C)C3)c(/C=C(\C)C(=O)O)c2)cc1 (stereo not given) | 90 to 92 °C |
| C=CCOC(=O)c1ccc(N=C(OC)c2ccc(OC)c(C34CC5CC(CC(C5)C3)C4)c2)cc1 | 85 to 87 °C |
